System: CYP3A
Test: Oral midazolam microdose
Format: in vivo, human
Conditions: human, plasma, po, 30 ug
Value type: Cmax (ng/mL)
Your answer is read as ng/mL, so omit the unit and give the number.

So, Cc1ncc2n1-c1ccc(Cl)cc1C(c1ccccc1F)=NC2 [midazolam] ? Its Cmax was 0.139

---

Tested on: CYP3A
Assay: Intravenous midazolam microdose
Assay type: in vivo, human
Details: human, plasma, iv, 10 ug
Value type: Vd (L)
Your answer is read as L, so omit the unit and give the number.

Summary: `Cc1ncc2n1-c1ccc(Cl)cc1C(c1ccccc1F)=NC2` , CYP3A, Vd = 148

---

Tested on: CYP3A
Experiment: Oral midazolam microdose
Assay type: in vivo, human
Conditions: human, plasma, po, 30 ug
Value type: Vd/F (L)
Your answer is read as L, so omit the unit and give the number.

So, `Cc1ncc2n1-c1ccc(Cl)cc1C(c1ccccc1F)=NC2` ? Its Vd/F was 422
